- Organism: Homo sapiens
- experimental_details: Selectivity factor, ratio of IC50 for human CYP11B2 to IC50 for human CYP11B1
experimental_endpoint: Ratio IC50

> print(dat)
                                    mol  experimental.endpoint  assay.result
1  c1ccc(-c2ccc(Cc3cncc4ccccc34)cn2)cc1             Ratio IC50           4.2

A. COc1cncc(Cc2ccc(-c3ccccc3)nc2)c1
B. Oc1cncc(Cc2ccc(-c3ccccc3)nc2)c1
Prompt line: Select one. Lower Ratio IC50: A or B Answer format: the label of the selected item.
Response line: A
(A: 5.1, B: 16.4)

====

- Species on record: Homo sapiens
- experimental_details: Selectivity factor, ratio of IC50 for human CYP11B2 to IC50 for human CYP11B1
experimental_endpoint: Ratio IC50

Completed entries (count: 10):
> print(dat)
                                    molecule  experimental.endpoint  assay.result
 1       c1ccc(-c2ncc(Cn3ccnc3)c3ccccc23)cc1             Ratio IC50           3.5
 2  CCC(c1ccc(-c2ccccc2)nc1)n1ccnc1 (stereo unspecified)             Ratio IC50           3.4
 3            c1ccc(-c2ccc(Cc3ccncc3)cn2)cc1             Ratio IC50           6.4
 4  CC(c1ccc(-c2ccsc2)nc1)n1ccnc1 (stereo unspecified)             Ratio IC50           9.1
 5           Fc1cncc(Cc2ccc(-c3ccccc3)nc2)c1             Ratio IC50           3.4
 6  c1cn(C(c2ccc(-c3ccsc3)nc2)C2CC2)cn1 (stereo unspecified)             Ratio IC50           2.8
 7             c1ccc(-c2cnc(Cn3ccnc3)cn2)cc1             Ratio IC50           1.7
 8           Cc1cncc(Cc2ccc(-c3ccccc3)nc2)c1             Ratio IC50          15.1
 9  c1ccc(-c2cncc(Cc3ccc(-c4ccccc4)nc3)c2)cc1             Ratio IC50           0.4
10  c1ccc(-c2ccc(C(C3CC3)n3ccnc3)cn2)cc1 (stereo unspecified)             Ratio IC50           1.2

a. CC(c1ccc(-c2ccccc2)nc1)n1ccnc1 (stereo unspecified)
b. CC(C)C(c1ccc(-c2ccccc2)nc1)n1ccnc1 (stereo unspecified)
c. c1ccc(-c2ccc(C(c3ccccc3)n3ccnc3)cn2)cc1 (stereo unspecified)
d. c1ccc2c(-c3ccc(C(C4CC4)n4ccnc4)cn3)cccc2c1 (stereo unspecified)
e. c1ccc2c(-c3ccc(Cn4ccnc4)cn3)cccc2c1
Prompt line: Put the molecules in ascending order of Ratio IC50. Submit the labels in the order that the ranking request calls for.
Response line: c, d, b, a, e

a. c1ccc(-c2ccc(Oc3cccnc3)cn2)cc1
b. CC(c1ccc(-c2cccc3ccccc23)nc1)n1ccnc1 (stereo unspecified)
c. c1ccc(-c2ccc(C(c3ccco3)n3ccnc3)cn2)cc1 (stereo unspecified)
d. NC(=O)c1cncc(Cc2ccc(-c3ccccc3)nc2)c1
e. c1ccc(-c2ccc(Cc3cccnc3)cn2)cc1
Prompt line: Rank by Ratio IC50 (largest to smallest). Submit the labels in the order that the ranking request calls for.
Response line: e, d, b, a, c

I. c1cn(Cc2ccc(-c3ccsc3)nc2)cn1
II. Cc1ccncc1Cc1ccc(-c2ccccc2)nc1
Prompt line: Select one. Lower Ratio IC50: I or II Answer format: the label of the selected item.
Response line: II

P. c1ccc(-c2ccc(Cn3ccnc3)nn2)cc1
Q. c1ccc(-c2ccc(Cc3cncnc3)cn2)cc1
Prompt line: Select one. Lower Ratio IC50: P or Q Answer format: the label of the selected item.
Response line: P
(P: 2.7, Q: 12.9)
